- System: Salmonella enterica serovar Typhimurium SL1344
- Assay details: normalized intracellular growth (luminescence, IQM-normalized) in RAW264.7 macrophages (fraction of plate interquartile mean); higher = more bacterial growth (less inhibition)
- Condition notes: 10 µM, time point: Tfinal (~6 h)
In all, about 1,600 compounds were measured (“normalized intracellular growth (luminescence, IQM-normalized) in RAW264.7 macrophages”: median about 1, lowest 2% from about 0.43 on). Shown is part of a subset that was picked to be rich in the lowest values.
Quick rule for you: normalized intracellular growth at 0.9 or higher means Met, lower means Not met.

Here are 3 compounds together with their reported answers.
Compound	Classification
CN(C)[C@@H]1C(O)=C(C(N)=O)C(=O)[C@@]2(O)C(O)=C3C(=O)c4c(O)ccc(Cl)c4[C@@](C)(O)[C@H]3C[C@@H]12	Not met
O=C([O-])[C@H]1/C(=C/CO)O[C@@H]2CC(=O)N21.[Li+]	Not met
Cc1nccnc1N1CCCCC1	Met

Tell me whether normalized intracellular growth is at least 0.9 here: "CCCCCN(C)CCC(O)(P(=O)(O)O)P(=O)(O)O"
Not met

Tell me whether normalized intracellular growth is at least 0.9 here: "CC(C)C[C@@H]1NC(=O)[C@H](CCCN)NC(=O)[C@H](C(C)C)NC(=O)[C@H](Cc2ccc(O)cc2)N[C@@H](CCC(=O)O)C(=O)N[C@@H](CC(N)=O)C(=O)[C@@H](Cc2ccccc2)NC(=O)[C@H](Cc2ccccc2)NC(=O)[C@@H]2CCCN2C(=O)[C@@H](Cc2ccccc2)NC1=O"
Met
